- SYSTEM_TESTED: D(2) dopamine receptor (Homo sapiens)
- MEASUREMENT_PROTOCOL: Dopamine D2 receptor (DRD2) small molecule antagonists, cell-based qHTS assay (AID 1963595); note: % is set by controls: 0 for no effect and ±100 for the full control effect
- RUN_CONDITIONS: HEK293-DRD2 cAMP HTRF antagonist mode; series mostly up to 92.4 µM
Results filed as inconclusive are left out. Active and inactive are the calls of the source. Calls come from the whole dose curve; as a rule, active = well fitted inhibition curve with a large enough effect in the signal ratio in the repeat runs, with a control signal flat; inconclusive = weak or mixed curves, or effect the other way; inactive = flat fitted curve, though single readings scatter; the % refers to the signal ratio.
MEASUREMENT_KIND: outcome

[
  {
    "COMPOUND": "CCc1cc(C)cc(CC)c1-c1c(OC(=O)C(C)(C)C)n2n(c1=O)CCOCC2",
    "REPORTED": "inactive"
  },
  {
    "COMPOUND": "ClC(Cl)c1ccccc1",
    "REPORTED": "inactive"
  },
  {
    "COMPOUND": "Cc1ccc(N=C=O)cc1N=C=O",
    "REPORTED": "inactive"
  },
  {
    "COMPOUND": "C=CCOC(N)=O",
    "REPORTED": "inactive"
  },
  {
    "COMPOUND": "Nc1ccc(N)cc1",
    "REPORTED": "inactive"
  },
  {
    "COMPOUND": "CCCCOP(=O)(CCCC)OCCCC",
    "REPORTED": "inactive"
  },
  {
    "COMPOUND": "Cc1cccc(N=Nc2ccc(N(C)C)cc2)c1",
    "REPORTED": "inactive"
  },
  {
    "COMPOUND": "CN(CCO)CCO",
    "REPORTED": "inactive"
  },
  {
    "COMPOUND": "COC(=O)c1cncn1C(C)c1ccccc1 (centres undefined)",
    "REPORTED": "inactive"
  },
  {
    "COMPOUND": "Oc1ccc(Cl)cc1",
    "REPORTED": "inactive"
  },
  {
    "COMPOUND": "CC(=[OH+])/C=C(/C)[O-].CC(=[OH+])/C=C(\\C)[O-].CC(=[OH+])/C=C(\\C)[O-].[Al]",
    "REPORTED": "inactive"
  },
  {
    "COMPOUND": "CN(C)C(=S)S",
    "REPORTED": "inactive"
  },
  {
    "COMPOUND": "CC12CC1(C)C(=O)N(c1cc(Cl)cc(Cl)c1)C2=O (centres undefined)",
    "REPORTED": "inactive"
  },
  {
    "COMPOUND": "Cc1cccc([N+](=O)[O-])c1",
    "REPORTED": "inactive"
  },
  {
    "COMPOUND": "CCCCCCCCCCCCCCCC[N+](C)(C)C",
    "REPORTED": "inactive"
  },
  {
    "COMPOUND": "CC(C)(c1ccccc1)c1cc(-n2nc3ccccc3n2)c(O)c(C(C)(C)c2ccccc2)c1",
    "REPORTED": "inactive"
  },
  {
    "COMPOUND": "CN(C)c1ccc(C(=O)c2ccc(N(C)C)cc2)cc1",
    "REPORTED": "inactive"
  },
  {
    "COMPOUND": "Cc1ccc([N+](=O)[O-])cc1",
    "REPORTED": "inactive"
  },
  {
    "COMPOUND": "CCCCCCCCCCCOC(=O)c1ccccc1C(=O)OCCCCCCCCCCC",
    "REPORTED": "inactive"
  },
  {
    "COMPOUND": "N#CC(Cl)Cl",
    "REPORTED": "inactive"
  },
  {
    "COMPOUND": "Oc1ccc(Cl)cc1Cl",
    "REPORTED": "inactive"
  },
  {
    "COMPOUND": "CC(C)N1C(=O)c2ccccc2NS1(=O)=O",
    "REPORTED": "inactive"
  },
  {
    "COMPOUND": "CCSC(=O)N1CCCCCC1",
    "REPORTED": "inactive"
  },
  {
    "COMPOUND": "Cc1cc(-c2cc(C)c(N)c(C)c2)cc(C)c1N",
    "REPORTED": "inactive"
  },
  {
    "COMPOUND": "CN1C(=O)CN=C(c2ccccc2)c2cc(Cl)ccc21",
    "REPORTED": "inactive"
  },
  {
    "COMPOUND": "O=[N+]([O-])c1ccc(CBr)cc1",
    "REPORTED": "inactive"
  },
  {
    "COMPOUND": "CN(CCCC(=O)c1cccnc1)N=O",
    "REPORTED": "inactive"
  },
  {
    "COMPOUND": "Clc1ccccc1-c1nnc(-c2ccccc2Cl)nn1",
    "REPORTED": "inactive"
  },
  {
    "COMPOUND": "NC1(c2ccccc2)CCCCC1",
    "REPORTED": "inactive"
  }
]

###

- MEASUREMENT_PROTOCOL: Nuclear factor erythroid 2-related factor 2/antioxidant responsive element (Nrf2/ARE) small molecule agonists: luciferase reporter gene qHTS assay in human keratinocytes (AID 1919969); note: nearly all actives have a fitted effect of over 35% in size
- RUN_CONDITIONS: KeratinoSens HaCaT ARE-luciferase, luminescence, 24 h; series mostly up to 92.4 µM
Inconclusive results are not listed. The source made the active and inactive calls. Calls follow the shape of the full dose curve.
Labels: yes (1) (active), no (0) (inactive)

[
  {
    "STRUCTURE_NOTATION": "Nc1ccc(Cc2ccc(N)cc2)cc1",
    "LABEL": "no (0)"
  },
  {
    "STRUCTURE_NOTATION": "O=C(Cl)CCl",
    "LABEL": "no (0)"
  },
  {
    "STRUCTURE_NOTATION": "Cl/C=C\\C[N+]12CN3CN(CN(C3)C1)C2",
    "LABEL": "yes (1)"
  },
  {
    "STRUCTURE_NOTATION": "CCN(CC)C(=O)/C(Cl)=C(\\C)OP(=O)(OC)OC",
    "LABEL": "no (0)"
  },
  {
    "STRUCTURE_NOTATION": "CNC(C)(C)Cc1ccccc1",
    "LABEL": "no (0)"
  },
  {
    "STRUCTURE_NOTATION": "Nc1ccc(N=Nc2ccc(-c3ccc(N=Nc4c(S(=O)(=O)O)cc5cc(S(=O)(=O)O)c(N=Nc6ccccc6)c(O)c5c4N)cc3)cc2)c(N)c1",
    "LABEL": "no (0)"
  }
]
